In this section we review reported pIC50 values for a set of compounds.
# measured on: human Nav1.8 (hNav1.8) ion channel (Homo sapiens)
# Sequence (Q9Y5Y9 whole entry): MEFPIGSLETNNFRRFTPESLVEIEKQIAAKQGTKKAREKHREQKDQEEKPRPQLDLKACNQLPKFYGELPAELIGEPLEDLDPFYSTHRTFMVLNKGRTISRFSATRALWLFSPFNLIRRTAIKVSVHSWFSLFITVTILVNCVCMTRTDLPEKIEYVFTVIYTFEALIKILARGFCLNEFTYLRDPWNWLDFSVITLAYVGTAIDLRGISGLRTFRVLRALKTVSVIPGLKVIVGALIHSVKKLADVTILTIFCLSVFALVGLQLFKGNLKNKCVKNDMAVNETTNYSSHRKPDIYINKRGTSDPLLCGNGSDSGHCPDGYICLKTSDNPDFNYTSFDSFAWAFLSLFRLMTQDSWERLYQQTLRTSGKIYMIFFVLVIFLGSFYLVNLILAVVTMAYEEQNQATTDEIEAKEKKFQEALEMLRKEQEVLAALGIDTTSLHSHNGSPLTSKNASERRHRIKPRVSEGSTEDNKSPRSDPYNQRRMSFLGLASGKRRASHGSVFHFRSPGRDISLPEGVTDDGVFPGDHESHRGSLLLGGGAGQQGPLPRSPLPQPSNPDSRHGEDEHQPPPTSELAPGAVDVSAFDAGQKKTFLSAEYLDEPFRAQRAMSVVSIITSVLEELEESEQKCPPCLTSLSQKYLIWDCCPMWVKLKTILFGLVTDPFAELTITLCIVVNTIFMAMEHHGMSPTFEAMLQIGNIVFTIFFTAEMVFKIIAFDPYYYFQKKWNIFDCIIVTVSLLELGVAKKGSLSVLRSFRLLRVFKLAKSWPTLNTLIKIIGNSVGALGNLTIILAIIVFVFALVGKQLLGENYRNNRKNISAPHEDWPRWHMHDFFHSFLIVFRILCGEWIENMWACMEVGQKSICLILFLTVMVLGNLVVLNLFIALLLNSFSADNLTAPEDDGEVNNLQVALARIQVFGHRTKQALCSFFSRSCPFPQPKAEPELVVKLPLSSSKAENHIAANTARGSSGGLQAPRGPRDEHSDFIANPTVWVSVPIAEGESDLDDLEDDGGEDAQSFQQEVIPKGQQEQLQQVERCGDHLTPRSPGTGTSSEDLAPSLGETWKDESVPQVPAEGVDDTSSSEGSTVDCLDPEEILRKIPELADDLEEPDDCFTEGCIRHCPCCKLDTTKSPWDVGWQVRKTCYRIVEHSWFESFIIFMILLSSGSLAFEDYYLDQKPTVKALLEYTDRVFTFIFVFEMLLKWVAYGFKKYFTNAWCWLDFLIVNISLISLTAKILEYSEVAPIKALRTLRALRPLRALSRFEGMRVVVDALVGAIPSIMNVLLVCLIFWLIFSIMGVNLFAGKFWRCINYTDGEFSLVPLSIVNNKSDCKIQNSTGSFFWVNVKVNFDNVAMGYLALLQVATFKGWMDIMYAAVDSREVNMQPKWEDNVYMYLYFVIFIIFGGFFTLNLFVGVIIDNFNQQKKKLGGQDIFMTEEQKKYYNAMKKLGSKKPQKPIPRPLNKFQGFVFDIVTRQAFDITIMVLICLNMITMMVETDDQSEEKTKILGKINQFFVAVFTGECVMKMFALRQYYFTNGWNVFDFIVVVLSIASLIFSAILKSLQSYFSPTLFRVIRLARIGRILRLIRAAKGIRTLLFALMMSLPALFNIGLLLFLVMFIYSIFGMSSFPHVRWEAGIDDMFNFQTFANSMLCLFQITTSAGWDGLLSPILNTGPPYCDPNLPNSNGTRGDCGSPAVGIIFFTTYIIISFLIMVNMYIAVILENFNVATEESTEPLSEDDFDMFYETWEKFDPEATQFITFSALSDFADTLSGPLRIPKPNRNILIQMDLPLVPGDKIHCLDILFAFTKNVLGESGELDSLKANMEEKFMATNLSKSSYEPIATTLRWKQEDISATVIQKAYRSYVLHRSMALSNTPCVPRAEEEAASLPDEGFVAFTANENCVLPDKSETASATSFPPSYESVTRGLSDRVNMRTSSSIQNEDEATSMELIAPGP
# test: Nav1.8 channel inhibition, estimated IC50 (one or more of: fluorescence inhibition assay, PatchXpress, IonFlux HT automated patch clamp)
# protocol conditions: HEK293 cells stably expressing hNav1.8; method used per compound not stated; read-out: Activity range (estimated IC50)
# Procedure: The ability of pyridine carboxamide derivatives exemplified above to inhibit the Nav1.8 channel was determined using one or more of the methods described below. HEK Nav1.8 β1/β2 Stably Expressing Cell Line A HEK293 cell line stably expressing the human Nav1.8 (hNav1.8) ion channel with β1/β2 subunits was constructed. The cell line is suitable for IC50 determination in fluorescence and electrophysiological based assays. […] Nav 1.8 Fluorescence Inhibition Assay […]
pIC50: −log10 of the molar value.

Please look at this compound and report its pIC50: `O=C(Nc1cccc(CO)c1)c1cc(C(F)(F)F)cnc1Oc1ccc(OC(F)(F)F)cc1Cl` > 6.30

Please look at this compound and report its pIC50: `COc1cc(Cl)ccc1Oc1ncc(C(F)(F)F)cc1C(=O)Nc1cccc(S(C)(=O)=O)c1` > 6.30
